assay name: Pharmacokinetic interaction study in rats, Study II: VOR with or without ATO
Assay type: in vivo
details: male, Sprague-Dawley, rat, plasma, po, 20 mg/kg, ATO 2 mg/kg + VOR 20 mg/kg oral
Excerpt: Considering the clinical dosage of each drug and the dose equivalence between rats and human subjects, the corresponding quantity of drug powder was taken and resuspended with normal saline to prepare the drug-containing administration solution before treatment. […] The analytes were quantified by selective reaction monitoring (SRM) that used heating electrospray ionization (H-ESI) in the positive ion mode. […]
parameter: Cmax
Field note: include the unit after the figure.

Query `C[C@@H](c1ncncc1F)[C@](O)(Cn1cncn1)c1ccc(F)cc1F` yields Cmax of 826 ng/mL

Data provenance: paper PMC10213937
